Origin of the recorded values: patent US20130184290A1

# RUN DESCRIPTION: Apparent intestinal permeability, Caco-2 cell model
# Assay type: in vitro ADME
# EXPERIMENTAL SETUP: human, Caco-2, pH 7.4; read-out: Efflux Ratio (Papp (B-to-A)/Papp (A-to-B))
# Method: Absorption of particular drugs may be limited by biological factors, such as reduced cellular permeability in the intestine. […] Briefly, Caco-2 cells were used as an in vitro model for predicting absorption through the intestinal epithelium. […] After five minutes, the solution was removed and replaced with fresh dosing solution, and time was recorded as 0. […] The apparent permeability (Papp), percent recovery, and efflux ratio were calculated as follows: […]
MEASURE NAME: efflux ratio at 60 min, 1 μM

Input line: Give the reported value of efflux ratio at 60 min, 1 μM for this record: "O=C(CC(c1ccccc1)c1ccccc1)N1CCN(C(c2ccccc2)c2ccccc2)CC1"
Output line: < 3

====

# RUN DESCRIPTION: Apparent intestinal permeability, Caco-2 cell model
# Format: in vitro ADME
# EXPERIMENTAL SETUP: human, Caco-2, pH 7.4; A-to-B; average
# Experimental: Absorption of particular drugs may be limited by biological factors, such as reduced cellular permeability in the intestine. […] Briefly, Caco-2 cells were used as an in vitro model for predicting absorption through the intestinal epithelium. […] After five minutes, the solution was removed and replaced with fresh dosing solution, and time was recorded as 0. […] The apparent permeability (Papp), percent recovery, and efflux ratio were calculated as follows: […]
MEASURE NAME: Papp A→B at 60 min, 1 μM

Input line: Answer with the recorded Papp A→B at 60 min, 1 μM of "O=C(CC(c1ccccc1)c1ccccc1)N1CCN(C(c2ccccc2)c2ccccc2)CC1" only.
Output line: > 1 ×10⁻⁶ cm/s

====

# RUN DESCRIPTION: Fed-fasted pharmacokinetics of compound 1 HCl salt
# Type: in vivo
# EXPERIMENTAL SETUP: human, in vivo, po, fed state with high fat meal, read-out: t1/2 for absorption
MEASURE NAME: half-life

Input line: Return half-life for the following compound: "O=C(CC(c1ccccc1)c1ccccc1)N1CCN(C(c2ccccc2)c2ccccc2)CC1"
Output line: 48 to 168 min
